Entries and their inhibition at 10 µM values follow.
biological target: hERG (KCNH2) (Homo sapiens, UniProt Q12809); assay: Inhibition of human ERG at 10 uM
Sequence (Q12809 whole entry): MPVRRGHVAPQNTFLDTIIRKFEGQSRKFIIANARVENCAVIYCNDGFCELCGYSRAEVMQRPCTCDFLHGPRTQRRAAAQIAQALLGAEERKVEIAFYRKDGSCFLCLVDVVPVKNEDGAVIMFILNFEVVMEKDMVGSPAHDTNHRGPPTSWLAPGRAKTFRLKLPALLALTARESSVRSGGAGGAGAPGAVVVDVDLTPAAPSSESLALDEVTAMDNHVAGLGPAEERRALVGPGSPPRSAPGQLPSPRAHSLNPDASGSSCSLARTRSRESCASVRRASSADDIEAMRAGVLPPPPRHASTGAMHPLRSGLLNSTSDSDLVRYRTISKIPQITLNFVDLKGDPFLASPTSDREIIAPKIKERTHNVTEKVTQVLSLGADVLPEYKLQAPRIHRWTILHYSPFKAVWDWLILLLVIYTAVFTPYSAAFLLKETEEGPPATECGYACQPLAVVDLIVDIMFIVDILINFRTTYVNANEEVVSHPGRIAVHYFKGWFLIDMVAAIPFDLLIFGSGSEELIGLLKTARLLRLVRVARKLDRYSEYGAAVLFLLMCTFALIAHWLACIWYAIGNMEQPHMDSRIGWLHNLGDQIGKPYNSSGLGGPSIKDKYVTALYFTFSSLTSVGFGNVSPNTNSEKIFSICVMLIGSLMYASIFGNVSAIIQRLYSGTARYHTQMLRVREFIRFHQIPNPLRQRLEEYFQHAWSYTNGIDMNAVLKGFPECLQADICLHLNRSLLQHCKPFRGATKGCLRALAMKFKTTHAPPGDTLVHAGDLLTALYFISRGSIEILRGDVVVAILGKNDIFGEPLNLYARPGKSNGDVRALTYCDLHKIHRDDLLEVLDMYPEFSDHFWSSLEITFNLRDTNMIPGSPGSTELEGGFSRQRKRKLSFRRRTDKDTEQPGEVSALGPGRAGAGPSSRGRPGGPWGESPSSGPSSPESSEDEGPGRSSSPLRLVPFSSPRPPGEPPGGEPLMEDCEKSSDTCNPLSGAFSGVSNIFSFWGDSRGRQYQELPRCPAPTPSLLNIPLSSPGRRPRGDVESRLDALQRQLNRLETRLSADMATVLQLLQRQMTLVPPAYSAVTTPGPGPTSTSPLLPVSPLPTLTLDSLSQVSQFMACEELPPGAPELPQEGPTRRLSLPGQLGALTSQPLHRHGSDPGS
result-type: inhibition at 10 µM

> print(dat)
                                   molecule                       experimental.system          result.type  endpoint.value
1  CC(=O)Nc1ccc2oc(-c3ccnc(C(=O)N4CCN(C(c5ccccc5)c5nnn(C)n5)CC4)c3)nc2c1 (racemic)  hERG (KCNH2) (Homo sapiens, UniProt Q12809)  inhibition at 10 µM           53.8%
2  CC(=O)Nc1ccc2oc(-c3ccnc(C(=O)N4CCN([C@H](c5ccc(F)cc5)c5nnn(C)n5)CC4)c3)nc2c1  hERG (KCNH2) (Homo sapiens, UniProt Q12809)  inhibition at 10 µM           13.2%

Origin of measurements: ChEMBL document CHEMBL4825697
